Source: patent US20260337208A1

# System: pSTAT6 in BEAS-2B human cell line
# RUN_DESCRIPTION: Inhibition of IL-13 induced pSTAT6 in BEAS
# Type: cell-based
# CONDITION_DESCRIPTION: Homo sapiens, BEAS-2B, 0.5 h; IL-13 trigger, 30 min; parent compound
MEASURE: IC50

# COMPOUND, MEASURED_RESULT
measured = [
    ("CCOC(=O)CC1CCN(CCNC(=O)c2nn(-c3cc4c(cc3OC)NCCO4)c3cc(-c4cnn5cccnc45)ncc23)CC1", "≤ 5.01 nM"),
    ("COc1cc2c(cc1-n1nc(C(=O)NCCN3CCC(C(=O)OCC(C)(C)O)CC3)c3cnc(-c4cnn5cccnc45)cc31)OCCN2", "≤ 5.01 nM"),
    ("COc1cc2c(cc1-n1nc(C(=O)NCCN3CCC(C(=O)OC4CCCC4)CC3)c3cnc(-c4cnn5cccnc45)cc31)OCCN2", "≤ 5.01 nM"),
    ("CCOC(=O)C1CCN(CCNC(=O)c2nn(-c3cc4c(cc3OC)NCCO4)c3cc(Nc4ncc[nH]c4=O)ncc23)CC1", "5.01 to 50.1 nM"),
    ("COc1cc2c(cc1-n1nc(C(=O)OCCCN3CCN(C)CC3)c3cnc(-c4cnn5cccnc45)cc31)SCCN2", "5.01 to 50.1 nM"),
    ("CCOC(=O)[C@H]1C[C@@H](OC(=O)Nc2nn(-c3cc4c(cc3OC)NCCO4)c3cc(-c4cnn5cccnc45)ncc23)C1", "5.01 to 50.1 nM"),
    ("COc1cc2c(cc1-n1nc(C(=O)OCC3CN(C)CCO3)c3cnc(-c4cnn5cccnc45)cc31)OCCN2 (stereo not shown)", "5.01 to 50.1 nM"),
    ("COc1cc2c(cc1-n1nc(C(=O)NCCN3CCC(C(=O)OC4CCN(C)CC4)CC3)c3cnc(-c4cnn5cccnc45)cc31)OCCN2", "5.01 to 50.1 nM"),
    ("CCOC(=O)[C@H]1C[C@@H](OC(=O)Nc2nn(-c3cc4c(cc3OC)NCCS4)c3cc(-c4cnn5cccnc45)ncc23)C1", "5.01 to 50.1 nM"),
    ("COC(=O)[C@H]1CCN(CCNC(=O)c2nn(-c3cc4c(cc3OC)NCCO4)c3cc(-c4cnn5cccnc45)ncc23)C1", "5.01 to 50.1 nM"),
    ("CCOC(=O)C1CCN(CCNC(=O)c2nn(-c3cc4c(cc3OC)NCCO4)c3cc(-c4cnn5cccnc45)ncc23)CC1", "≤ 5.01 nM"),
    ("COc1cc2c(cc1-n1nc(C(=O)NCCN3CCC(C(=O)O[C@@H]4CCN(C)C4)CC3)c3cnc(-c4cnn5cccnc45)cc31)OCCN2", "5.01 to 50.1 nM"),
    ("COc1cc2c(cc1-n1nc(C(=O)NCCN3CC[C@@H](C(=O)OCC(C)(C)C#N)C3)c3cnc(-c4cnn5cccnc45)cc31)OCCN2", "≤ 5.01 nM"),
]
